Test: Cytotoxicity against human MT2 cells after 4 to 5 days by MTT assay
Type: cell-based
CC50 under 1000 µM gets y, anything at or over 1000 µM gets n.

Here are 5 compounds together with their reported answers.
Compound	Assigned Class
CC(C)=C1C(=O)C[C@@]2(C)C[C@@H]3O[C@@]3(C)CC[C@@H]3O[C@@]3(C)CC[C@H]12	n
CC(C)=C1CC[C@@]2(C)C/C=C(\C)CC/C=C(\C)CC[C@H]12	n
C=C1CC[C@@H]2C(=C(C)C)C(=O)C[C@@]2(C)C[C@@H](O)[C@](C)(O)CC[C@@H]1O	y
C[C@H]1/C=C/[C@@]2(C)CC[C@@H](C(C)(C)O)[C@@H]2[C@@H](O)C[C@@](C)(O)/C=C\C1	n
CC(C)=C1C(=O)C[C@@]2(C)C/C=C(\C)CC/C=C(\C)CC[C@H]12 [DOLABELLANE]	n

Next compound, please.
Prompt: Hello, is CC50 of the following compound strictly smaller than 1000 µM? "Cc1ccnc2c1NC(=O)c1cccnc1N2C1CC1"
Completion: y

Hello, the source for this data is ChEMBL document CHEMBL3351884, in case you need it.
